assay: Half life in cynomolgus monkey hepatocytes; format: ADME, cell-based, Macaca fascicularis, Hepatocyte
assay.readout: half-life

What value of half-life has been reported for the following compound? COC(=O)N[C@H](C(=O)N1CCC[C@H]1c1ncc(-c2ccc(-c3ccc(-c4cnc([C@@H]5CC6(CN5C(=O)[C@@H](NC(=O)OC)C(C)C)OCCO6)[nH]4)cc3)cc2)[nH]1)C(C)C
≥ 6 h

* * *

tested on: Hepatitis C virus; assay: Antiviral activity against Hepatitis C virus genotype 1a in Huh-luc/neo-ET replicon cells after 48 hrs by replicon-based luciferase assay; format: functional, organism-based, Hepacivirus hominis; details: subtype 1a
Mark class 1 only when EC50 stays strictly below 30 nM. Values equal to the cut-off are class 0.

# compound, classification
rows = [
    ("COC(=O)N[C@H](C(=O)N1CC2(CCN(C(=O)OC)CC2)CC1c1ncc(-c2ccc(-c3ccc(-c4cnc([C@@H]5CCCN5C(=O)[C@@H](NC(=O)OC)C(C)C)[nH]4)cc3)cc2)[nH]1)C(C)C (mixture of isomers)", "class 1"),
    ("O=C(Nc1cccnc1)c1ccc(-c2csc(NC(=O)[C@@H]3COC4(CCOCC4)N3C(=O)OCc3ccccc3)n2)cc1", "class 0"),
    ("COC(=O)N[C@H](C(=O)N1CC2(CC1c1ncc(-c3ccc(-c4ccc(-c5cnc([C@@H]6CCCN6C(=O)[C@@H](NC(=O)OC)C(C)C)[nH]5)cc4)cc3)[nH]1)CN(C(=O)OC(C)(C)C)C2)C(C)C (mixture of isomers)", "class 1"),
    ("O=C(Nc1nc(-c2ccccc2)cs1)[C@@H]1CCCN1C(=O)OCc1ccccc1", "class 0"),
    ("CC[C@H](NC(=O)OC)C(=O)N1CC2(C[C@H]1c1ncc(-c3ccc(-c4ccc(-c5cnc([C@@H]6CCCN6C(=O)[C@@H](NC(=O)OC)C(C)C)[nH]5)cc4)cc3)[nH]1)SCCS2", "class 1"),
]

Does the reported EC50 of the following compound sit strictly below 30 nM? COC(=O)N[C@H](C(=O)N1CCC[C@H]1c1ncc(-c2ccccc2)[nH]1)C(C)C
class 0

And COC(=O)N[C@H](C(=O)N1CCC[C@H]1c1ncc(-c2ccc(-c3ccc(-c4cnc(C5CCC6(CCC(F)(F)CC6)N5C(C)=O)[nH]4)cc3)cc2)[nH]1)C(C)C (stereo partly drawn) ?
class 1

And COC(=O)N[C@H](C(=O)N1CC2(CCOCC2)CC1c1ncc(-c2ccc(-c3ccc(-c4cnc([C@@H]5CCCN5C(=O)[C@@H](NC(=O)OC)C(C)C)[nH]4)cc3)cc2)[nH]1)C(C)C (mixture of isomers) ?
class 1

* * *

tested on: Hepatitis C virus; assay: Antiviral activity against Hepatitis C virus genotype 1b in Huh-luc/neo-ET replicon cells after 48 hrs by replicon-based luciferase assay; assay type: functional, organism-based, Hepacivirus hominis
assay.readout: EC50 (pM)
Give bare numbers, in pM.

# compound, system.under.test, EC50, pM
measured = [
    ("COC(=O)NCC(=O)N1CC2(C[C@H]1c1ncc(-c3ccc(-c4ccc(-c5cnc([C@@H]6CCCN6C(=O)[C@@H](NC(=O)OC)C(C)C)[nH]5)cc4)cc3)[nH]1)SCCS2", "Hepatitis C virus", 5.01),
]

Respectfully, I request EC50 for each entry included below.
1. COC(=O)N[C@H](C(=O)N1CC2(CC1c1ncc(-c3ccc(-c4ccc(-c5cnc([C@@H]6CCCN6C(=O)[C@@H](NC(=O)OC)C(C)C)[nH]5)cc4)cc3)[nH]1)CC(F)(F)C2)C(C)C (mixture of isomers)
2. COC(=O)N[C@H](C(=O)N1CC2(CNC2)CC1c1ncc(-c2ccc(-c3ccc(-c4cnc([C@@H]5CCCN5C(=O)[C@@H](NC(=O)OC)C(C)C)[nH]4)cc3)cc2)[nH]1)C(C)C (mixture of isomers)

1: 3.98; 2: 126
